subject-of-test: recombinant rat sEH (Rattus norvegicus, UniProt P80299)
Construct: made in house
Sequence (P80299 1-554): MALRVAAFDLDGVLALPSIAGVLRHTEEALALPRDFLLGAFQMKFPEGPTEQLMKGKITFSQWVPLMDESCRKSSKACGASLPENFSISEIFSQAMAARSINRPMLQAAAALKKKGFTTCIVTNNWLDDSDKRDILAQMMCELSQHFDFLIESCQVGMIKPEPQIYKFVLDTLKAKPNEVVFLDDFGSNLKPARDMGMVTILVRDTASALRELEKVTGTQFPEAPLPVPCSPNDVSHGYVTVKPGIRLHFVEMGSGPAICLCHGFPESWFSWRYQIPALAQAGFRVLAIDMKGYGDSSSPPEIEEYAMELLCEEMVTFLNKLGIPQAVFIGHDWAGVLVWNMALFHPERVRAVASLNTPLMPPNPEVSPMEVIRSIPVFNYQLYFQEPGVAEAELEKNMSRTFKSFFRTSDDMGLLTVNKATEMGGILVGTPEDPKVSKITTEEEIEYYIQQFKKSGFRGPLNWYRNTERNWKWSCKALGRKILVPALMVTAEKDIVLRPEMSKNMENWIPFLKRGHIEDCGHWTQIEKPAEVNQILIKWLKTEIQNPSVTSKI
experiment-notes: Potency on recombinant rat sEH, fluorescent substrate
Type: biochemical
measurement-context: read-out: IC50 on recombinant rat sEH
recorded-endpoint: IC50

Q: Endpoint output: IC50 of COc1ccc(C2CNC(=O)C2)cc1OC1CCCC1 (stereo not shown) . Value?
A: > 100 µM
